The measured values listed here are drawn from PubChem BioAssay (NCI).

growth for assorted molecules
Test system: UACC-257 melanoma
Measurement notes: NCI-60 one-dose screen, 48 h (100 = growth as untreated, 0 = no growth, -100 = all killed)
Condition summary: 10 µM unless noted
The panel holds about 83,000 compounds, 20% with a hit somewhere; the sample as a whole holds those more often. The source made the active and inactive calls. Rule for the calls: active = growth percent below 10; inactive = the rest.

Consider the following illustrative entries.
C[C@H]1[C@H]2[C@H]3CC[C@@H]4[C@@]5(C)CC[C@H](O)C(C)(C)[C@@H]5CC[C@@]4(C)[C@]3(C)CC[C@]23CO[C@]1(C)[C@@H](C(=O)/C=C\c1cccnc1)C3 :: 49.3% (inactive)
O=[N+]([O-])c1ccc(Cl)c(-c2cc(CCCCO)on2)c1 :: 117% (inactive)
CCCCC1CCCC12NC(=O)NC2=O (stereo not given) :: 112% (inactive)
Cc1ncc(C(=O)Nc2ccc(CN3CCN(C)CC3)c(C(F)(F)F)c2)cc1C#Cc1ccc(N)nc1 :: 0.961% (active)
COc1ccc(-c2conc2-c2ccccc2)cc1 :: 71.5% (inactive)

Query string: Name the recorded growth for `CCN(CC)CCNc1nc2ccccc2c2c(=O)c3cc(Cl)ccc3sc12` .
Result string: 93.2% (inactive)

Query string: Name the recorded growth for `COc1ccc(C(=S)N2CCN(c3cccc(C)c3)CC2)cc1OC` .
Result string: 77.7% (inactive)

====

System: K-562 leukemia
Measurement notes: NCI-60 one-dose screen, 48 h (100 = growth as untreated, 0 = no growth, -100 = all killed)
Condition summary: 10 µM unless noted
The panel holds about 83,000 compounds, 20% with a hit somewhere; the sample as a whole holds those more often.
Response field label takes 1 (yes) when growth is strictly below 40% and 0 (no) in all other cases.

Solved cases below.
Cc1nn(-c2ccccc2)c(-n2ccnc2)c1/C=N/Nc1nc(-c2ccc(F)cc2)cs1 :: 1 (yes)
NCCOc1ncccc1/C=C1\c2ccccc2-c2ccc(C(F)F)cc21 :: 1 (yes)
CCOC(=O)Cn1c(C)c(/C=N/NC(=O)c2cc3c(ccc4ccccc43)o2)c2ccccc21 :: 1 (yes)

Query string: # TODO verify growth < 40% strictly for this compound: `O=C1/C(=C/c2ccc(F)cc2)Sc2c(Br)cccc21`
Result string: 0 (no)

Query string: # TODO verify growth < 40% strictly for this compound: `COc1cc(Nc2cn[nH]c2-c2ccc(Cl)cc2)cc(OC)c1OC`
Result string: 1 (yes)

====

Tested on: SK-MEL-28 melanoma
Measurement notes: NCI-60 one-dose screen, 48 h (100 = growth as untreated, 0 = no growth, -100 = all killed)
Condition summary: 10 µM unless noted
Compounds without any hit were thinned out: in the full panel of roughly 83,000, 20% have a hit.
growth for assorted compounds
Numbers only; they are read as %.

Consider the following illustrative entries.
COC(=O)Nc1ccc(-c2nc(-c3cccc(OC)c3)c(-c3ccnc(Br)c3)[nH]2)cc1 :: 62.3
COc1ccc(OC)c(/C=C/C(=O)N/N=C/c2ccc(Cl)cc2)c1 :: 38.8
COc1cc(/C=N/NC(=O)c2ccc(C)nc2)cc(OC)c1OC :: 117
Cc1ccc(C(=O)NCCNc2nccc(-c3c(-c4cccc(F)c4)nc4sccn34)n2)cc1 :: 65
COc1cc(CNS(=O)(=O)c2ccc(C)cc2)ccc1OCc1cn(-c2ccccc2)nn1 :: 101

Query string: Name the recorded growth for `O=C(N/N=C/c1ccc(Cl)cc1)c1ccc(C(F)(F)F)nc1Nc1cccc(C(F)(F)F)c1` .
Result string: -2

Query string: Name the recorded growth for `Nc1nc2ccccc2c2c(=O)c3cc(F)ccc3sc12` .
Result string: 103

Query string: Name the recorded growth for `Cc1nc2ccccc2c(/C=C/c2ccc(Cl)cc2)c1C(=O)/C=C/c1ccc(C(F)(F)F)cc1` .
Result string: -69.7

Query string: Name the recorded growth for `CCCCCCCCCCCCCCCCCCOc1ccccc1CC(=O)OCC[N+](CC)(CC)CC` .
Result string: 31.5

Query string: Name the recorded growth for OC(c1ccccc1)C(NC(Cc1ccccc1)c1ccccc1)c1ccccc1 (stereo not given) .
Result string: 97.8
